Documented Kd across a set of binders
Molecular target: T1, PUF4 RNA-binding domain (Saccharomyces cerevisiae, UniProt P25339 537-888)
T1 sequence: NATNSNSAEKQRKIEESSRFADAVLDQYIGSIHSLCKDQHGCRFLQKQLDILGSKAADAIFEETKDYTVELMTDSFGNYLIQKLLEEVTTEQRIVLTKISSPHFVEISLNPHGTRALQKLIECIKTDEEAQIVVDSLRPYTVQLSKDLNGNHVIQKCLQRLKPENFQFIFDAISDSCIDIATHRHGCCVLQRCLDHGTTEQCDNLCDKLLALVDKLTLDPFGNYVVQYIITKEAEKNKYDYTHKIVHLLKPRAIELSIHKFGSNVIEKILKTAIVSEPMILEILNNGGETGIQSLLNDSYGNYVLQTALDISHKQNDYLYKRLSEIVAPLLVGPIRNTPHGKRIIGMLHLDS
Assay: Mg; RNA-MaP; 20 mM Na-HEPES pH 7.4, 30 mM KOAc, 0.75 mM MgCl2, 0.1% Tween-20, 5% glycerol, 0.1 mg/mL BSA, 2 mM DTT; 25 C; 0.0125-409.6 nM protein
Details: tags: N-His6-TEV cleaved; C-SNAP kept, Cy3B-labelled; label: tethered on chip by stalled RNA polymerase
Numbers only here, please. The scale is nM.

UCUCUUCUUAUAUAUACAUCUCUU (ssRNA) [Id_ii_S1_P3E.3_K3.2_C3.2_H3.2_A3.1_F3.1_T3.2_[T9C]]	907

Now, please, on to the next binder.
Briefly, Kd measured for UCUCUUUGUAUGGUAUUCUCUU (ssRNA) [Ic_S1_P5E.1_K5.1_C5.1_H5.1_A5.1_[T6G]_[A7G]_F5.1_[T9A]_[A10T]_T5.1] : 13.3

These entries and their values trace back to paper PMC9352680.
